# study target: acetylcholinesterase (AChE) (Electrophorus electricus)
# Sequence (O42275 24-633): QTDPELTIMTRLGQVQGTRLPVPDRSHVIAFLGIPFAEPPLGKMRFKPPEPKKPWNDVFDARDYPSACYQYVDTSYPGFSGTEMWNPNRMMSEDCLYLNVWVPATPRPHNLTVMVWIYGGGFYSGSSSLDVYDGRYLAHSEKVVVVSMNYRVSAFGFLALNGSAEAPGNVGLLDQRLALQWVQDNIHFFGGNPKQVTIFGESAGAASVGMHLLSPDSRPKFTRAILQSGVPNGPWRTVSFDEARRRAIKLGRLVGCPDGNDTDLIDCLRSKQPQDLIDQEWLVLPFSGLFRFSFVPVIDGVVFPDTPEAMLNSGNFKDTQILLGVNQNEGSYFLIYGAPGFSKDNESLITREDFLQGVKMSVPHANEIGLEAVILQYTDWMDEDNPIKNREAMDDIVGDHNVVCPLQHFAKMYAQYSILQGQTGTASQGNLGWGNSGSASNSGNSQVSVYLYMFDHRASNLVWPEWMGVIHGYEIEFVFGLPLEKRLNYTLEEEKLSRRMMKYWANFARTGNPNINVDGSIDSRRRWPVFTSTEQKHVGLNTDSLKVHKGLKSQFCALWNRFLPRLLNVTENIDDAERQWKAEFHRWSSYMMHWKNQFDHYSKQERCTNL
measured endpoint: pIC50
Numbers only, as −log10 of the molar value.

Can you look up the measured pIC50 of Cc1cc2nc3[nH]c(=O)[nH]c(=O)c3nc2cc1C [compound 3, lumichrome] for me?
4.91
